System: OVCAR-3 ovarian
Experiment: NCI tumour cell line growth inhibition, 48 h
Observable: TGI

What value of TGI has been recorded for this entry: O=C1Cc2c(-c3ccccc3)cc(-c3ccccc3)nc2-c2ccccc2N1 21.4 µM

What value of TGI has been recorded for this entry: CCOC(=O)/C(Br)=C1\OC(=O)c2ccccc2-c2ccccc21 > 100 µM

What value of TGI has been recorded for this entry: O=C1OC(CC(=O)c2ccc(F)cc2)C(Cl)=C1Cl (stereo unspecified) 38.7 µM

What value of TGI has been recorded for this entry: COC(=O)c1cc(-c2ccc3ccccc3c2)[nH]c(=O)c1C#N > 100 µM

What value of TGI has been recorded for this entry: Cc1ccccc1/C=C/c1csnn1 > 100 µM

What value of TGI has been recorded for this entry: CC(=O)N1C(C(=O)NN2CCOCC2)CSC1c1ccccc1 (stereo unspecified) > 100 µM

What value of TGI has been recorded for this entry: OCC1NC(COC2OC(CO)C(O)C(O)C2O)C(O)C(O)C1O (stereo unspecified) > 100 µM

What value of TGI has been recorded for this entry: NCCOc1ccc(/C(=C(/Cl)c2ccccc2)c2ccccc2)cc1 26.2 µM

What value of TGI has been recorded for this entry: COC1(OC)CC2C(=O)N(Cc3ccccc3)C1C(S(=O)(=O)c1ccccc1)C2C(C)S(=O)(=O)c1ccccc1 (stereo unspecified) > 100 µM

What value of TGI has been recorded for this entry: COc1cc(/C=C/C(=O)c2cccc3ccccc23)cc(OC)c1OC 25.7 µM

What value of TGI has been recorded for this entry: CN(C)CCCNC(=O)N/N=C/c1ccc(O)cc1 > 100 µM

###

Tested on: DU-145 prostate
Test: NCI tumour cell line growth inhibition, 48 h
So I've got a bunch of molecules here, and I need their TGI values.

What value of TGI has been recorded for this entry: CC(C)C[S+]1C2=C([O-])CC(C)(C)CC2=Nc2ccccc21 (stereo unspecified) > 100 µM

What value of TGI has been recorded for this entry: CN(C)CCCNC(=O)N/N=C/c1ccc(O)cc1 > 100 µM

What value of TGI has been recorded for this entry: C=CCn1c(-c2cc(C(C)(C)C)c(O)c(C(C)(C)C)c2)cs/c1=N\C(P(=O)(O)O)P(=O)(O)O > 100 µM

What value of TGI has been recorded for this entry: Nc1nc(N)c2c(n1)NC(c1sc(Cl)nc1Cl)CC(c1ccccc1)=N2 (stereo unspecified) 24.2 µM

What value of TGI has been recorded for this entry: CCOC(=O)COc1cc(-c2ccccc2F)nc2cc3c(cc12)OCO3 > 100 µM

What value of TGI has been recorded for this entry: Cc1cc(C)cc(Nc2nnc3n2S(=O)(=O)c2cc(C)c(Cl)cc2S3)c1 97 µM

What value of TGI has been recorded for this entry: COc1ccc(C(=O)/C=C/c2sc(Cl)nc2Cl)cc1 3.55 µM

What value of TGI has been recorded for this entry: CC1=C(C(=O)NNC(=O)Cc2ccccc2)CC(C(=O)NNC(=O)Cc2ccccc2)=C(C)N1 > 100 µM

What value of TGI has been recorded for this entry: CC(NC(=O)Cc1ccc(OP(=O)(OCc2ccc([N+](=O)[O-])o2)N(C)CCCCCl)cc1)c1ccc(OCC2CCCCC2)c(C(N)=O)c1 (stereo unspecified) 14.4 µM

What value of TGI has been recorded for this entry: CCn1cnc(C[C@H](NC(=O)[C@H](CCCCNC(=O)Nc2cc(C(F)(F)F)cc(C(F)(F)F)c2)NC(=O)Nc2cc(C(F)(F)F)cc(C(F)(F)F)c2)C(=O)OC)c1 > 10 µM

What value of TGI has been recorded for this entry: O=C(O)c1cc(N=Nc2ccc([N+](=O)[O-])cc2)ccc1O > 100 µM

What value of TGI has been recorded for this entry: COc1ccc2[nH]c(Cl)c(/C=C3/C(=O)Nc4ccccc43)c2c1 2.35 µM

What value of TGI has been recorded for this entry: Cc1ccc(C2(O)c3ccccc3C(=O)N(C)C2(O)c2ccc(C)cc2)cc1 (stereo unspecified) > 100 µM

What value of TGI has been recorded for this entry: CCOC(=O)C1(CC(=O)O)CCCC1=O (stereo unspecified) > 100 µM

What value of TGI has been recorded for this entry: NC(Cc1ccc(O)cn1)C(=O)NC(C(=O)O)c1ccccc1 (stereo unspecified) > 100 µM

What value of TGI has been recorded for this entry: CCOC(=O)/C(=C/CC/C(C)=C/CC/C(C)=C/CCc1ccoc1)CC(=O)N1CCCCC1 43.4 µM

What value of TGI has been recorded for this entry: O=Cc1c2c(cc3c1CC1(C3)Cc3cc4c(c(C=O)c3C1)CCCC4)CCCC2 > 100 µM

What value of TGI has been recorded for this entry: Cc1sc2c(c1C)C(=O)c1cccn1-2 > 100 µM

What value of TGI has been recorded for this entry: Nc1nc(Cl)cc(NCC2(CO)CCCCC2)n1 > 100 µM

What value of TGI has been recorded for this entry: CN(C)c1ccc(C(=S)c2ccc(N(C)C)cc2)cc1 > 100 µM

What value of TGI has been recorded for this entry: N#Cc1ncc(C(Cl)Cl)nc1Cl > 10 µM

What value of TGI has been recorded for this entry: CC(=O)Nc1ccc(NC(=O)CC(=O)Nc2ccc(NC(C)=O)cc2)cc1 > 100 µM

What value of TGI has been recorded for this entry: COc1ccc(-c2nc(-c3ccc(OC)cc3)n(-c3ccccc3)n2)cc1 > 100 µM

What value of TGI has been recorded for this entry: Cc1ccsc1/C=N/NC1=NCCN1 > 100 µM

What value of TGI has been recorded for this entry: CCOC(=O)Cc1c(C)c2ccc(OC(C)=O)c(OC(C)=O)c2oc1=O > 100 µM

What value of TGI has been recorded for this entry: N=c1c2sc3nc4ccccc4n3c2ncn1Cc1ccccc1 > 100 µM

What value of TGI has been recorded for this entry: COc1ccc(C=Nc2ccc(-c3nc4ccccc4s3)cc2)cc1OC > 100 µM

What value of TGI has been recorded for this entry: C=C1CCC2CC1C(C(=O)c1c[nH]c3ccccc13)=NC2(C)C (stereo unspecified) > 100 µM

What value of TGI has been recorded for this entry: COC(=O)c1cc(-c2ccc3ccccc3c2)[nH]c(=O)c1C#N > 100 µM

What value of TGI has been recorded for this entry: CON(C)c1nc(N)c(C#N)c(C#N)c1C#N > 10 µM

What value of TGI has been recorded for this entry: Cc1cc(S(=O)(=O)/N=C(\N)Nc2cccc(O)c2)c(SCc2ccccc2)cc1Cl 81.8 µM

###

System: HT29 colon
Test: NCI tumour cell line growth inhibition, 48 h
So I've got a bunch of compounds here, and I need their GI50 values.

Hi! What's the reported GI50 for Clc1ccc(-c2cc(-c3ccccc3)nc(N3CCN(CCCNc4ccnc5cc(Cl)ccc45)CC3)n2)cc1 on HT29 colon? 0.464 µM

Hi! What's the reported GI50 for Cc1cc(S(=O)(=O)/N=C(\N)Nc2cccc(O)c2)c(SCc2ccccc2)cc1Cl on HT29 colon? 20.6 µM

Hi! What's the reported GI50 for CC(C)C[C@H](CC(=O)O)C(=O)N[C@@H](Cc1c[nH]c2ccccc12)C(=O)N[C@@H](C)c1ccccc1 on HT29 colon? > 25 µM

Hi! What's the reported GI50 for Cc1cccc2c(C3=C(c4cn(C)c5ccccc45)C(=O)NC3=O)cn(C)c12 on HT29 colon? > 13.8 µM

Hi! What's the reported GI50 for O=C1c2c(O)cccc2C(C(=O)CCCCCC(=O)C2c3cccc(O)c3C(=O)c3c(O)cccc32)c2cccc(O)c21 on HT29 colon? 11.8 µM

Hi! What's the reported GI50 for C[C@@H](Nc1nc(N[C@H](C)C(F)(F)F)nc(-c2cccc(Cl)n2)n1)C(F)(F)F on HT29 colon? > 100 µM

Hi! What's the reported GI50 for CN(C)c1ccc(/C=C/C(=O)c2ccc(Nc3nc(Nc4ccc(F)cc4)nc(Nc4ccc(F)cc4)n3)cc2)cc1 on HT29 colon? 15.5 µM

Hi! What's the reported GI50 for C1=N[C@]23C(=N[C@H](N=C2NCc2ccco2)[C@]24N=CNC2=N[C@H]3N=C4NCc2ccco2)N1 on HT29 colon? > 100 µM

Hi! What's the reported GI50 for CN(C)c1ccc(C(=S)c2ccc(N(C)C)cc2)cc1 on HT29 colon? 3.79 µM

###

So I've got a bunch of compounds here, and I need their TGI values.
Tested on: M14 melanoma
Experiment: NCI tumour cell line growth inhibition, 48 h
Numeric only. Scale: µM

What value of TGI has been recorded for this entry: C[C@H]1CCC/C=C/C2CC(OC(=O)CN(C)C)CC2C(OC(=O)CN(C)C)/C=C/C(=O)O1 (stereo not given in full) 4.65

What value of TGI has been recorded for this entry: Cc1cccc(C(C)(C)C)c1NC(=O)C(C#N)C1=C(Cl)C(=O)c2ccccc2C1=O (stereo not given) 32.5

What value of TGI has been recorded for this entry: C#CCN(N=O)C(=O)NC(CCCCNC(=O)OCc1ccccc1)C(=O)OCc1ccccc1 (stereo not given) 56.6
